IC50 reference
- Test system: JFH-1 HCV
- Test Description: microbe, parasite or virus in culture
- Format: cell-based, hepatitis C virus (HCV)
- Measurement Setup: Hepatitis C virus, Huh-7, read-out: Inhibition of hepatitis C virus (IC50)
Counter-ions that a name gives are not always drawn.

These solved cases illustrate the format of a correct answer.
>>> result("CC(C)c1ccc2c(c1)c1c3n2CCN(CC(N)=O)C3CCC1 (stereo not shown)")
"1700 nM"
>>> result("CN1CCN(C(=O)C2CCN(Cc3cc4ccccc4n3C)CC2)CC1 [1.3.1.1(15) * 2 HCl]")
"2400 nM"
>>> result("CCCN1CCN(C(=O)C2CCN(Cc3cc4ccccc4n3Cc3ccc(Cl)cc3)CC2)CC1")
"300 nM"
>>> result("CCCN1CCN(C(=O)C2CCCN(Cc3cc4ccccc4n3Cc3ccc(Cl)cc3)C2)CC1 (stereo not shown) [1.3.2.1(13) * 2 HCl, dihydrochloride]")
"400 nM"
>>> result("CCCN1CCN(C(=O)C2CCN(Cc3cc4ccccc4n3C)CC2)CC1 [1.3.1.1(14) * 2 HCl, dihydrochloride]")
"2100 nM"

Enquiry: State its IC50 on JFH-1 HCV: Clc1ccc(Cn2c(CN3CCCC3)nc3ccccc32)cc1 [I Control, Clemizole, reference compound]
Return: 9000 nM

Enquiry: Now the same for c1ccc(CN2CCCn3c4c(c5cc(C6CCCCC6)ccc53)CCCC42)cc1 (stereo not shown)
Return: 1600 nM
